Tested on: Raji cells (STEAP2 negative)
Assay: FACS binding to STEAP2-negative Raji cells
Details: human-Fc antibodies
Description: The ability of anti-STEAP2 antibodies to selectively bind to human six-transmembrane epithelial antigen of prostate 2 (STEAP2) endogenously expressing cell lines was determined via FACS analysis. Briefly, 1×10^5 cells were incubated with 10 μg/ml of anti STEAP2 antibodies, or isotype control antibodies for 30 min on ice in antibody dilution buffer. […] Mean fluorescence intensities (MFI) were expressed as fold change above unstained levels (background). […]
Overview of reported Raji Avg F.A.B (Fold Above Background) across a group of molecules:
endpoint name: Raji Avg F.A.B (Fold Above Background)

>>> assay_value("H1H7972P: anti-STEAP2 antibody, HCVR/LCVR SEQ ID NOs 186/194 (antibody, V domains shown) VH: QVQLQQSGPGLVKPSQTLSLTCAISGDSVSSNSAAWNWIRQSPSRGLEWLGRTYYRSKWYNDYVVSVKSRIIFNPDTSKNQFSLQLNSVTPEDTAVYYCARVRQDYRSGPFDYWGQGTLVTVSS VL: EIVMTQSPVTLSVSPGERATLSCWASQSVSSSLAWYQQKPGQAPRLLIYGASTRATGIPARFSGSGSGTGFTLTISSLQSEDFAVYYCQQYNNWPFTFGPGTKVDIK")
"59 fold"
>>> assay_value("H1H7809N: human-Fc anti-STEAP2 antibody, HCVR SEQ ID NO: 330 (antibody, V domains shown) VH: QVQLVESGGGVVQPGRSLGLSCAASGFTFSSYGMHWVRQAPGKGLEWVAVIWYDGSNKYYVDSVKGRFTISRDNSKNTLYLQMNSLRAEDTAVYYCAREGLRFLENYYYYYGMDVWGQGTTVTVSS VL: EIVLTQSPGTLSLSPGERATLSCRASQSISSTYLAWYQQRPGQAPRLLIYGASSRATGIPDRFSGSGSGTDFTLTISRLEPEDFAVYYCQQYGTSPYTFGQGTKLEIK")
"3 fold"
>>> assay_value("H1H7810N: human-Fc anti-STEAP2 antibody; variable regions presumably as H2M7810N (antibody, V domains shown) VH: QVQLVESGGGVVQPGRSLRLSCAVSGFTSSTYGMNWVRQAPGKGLEWVAVISYDGSNKYYADSVKGRFTISRDNSKNTLYLQMNSLRPEDTAVYYCARGRYFDLWGRGTLVTVSS VL: DIQMTQSPSTLSASVGDRVTITCRASQIISSWLAWYQQKPGKAPKLLIYKASSLASGVPSRFSGSGSGTEFTLTISSLQPDDFATYYCQQYKSYSYTFGQGTKLEIK")
"2 fold"
>>> assay_value("H1H7811N: human-Fc anti-STEAP2 antibody; variable regions presumably as H2M7811N (antibody, V domains shown) VH: QVQLVESGGGVVQPGRSLRLSCAVSGFTSSTYGMNWVRQAPGKGLEWVAVISFDGSNKYYADSVKGRFTISRDNSKNTLYLQMSSLRPEDTAVYYCARGRYFDLWGRGTLVTVSS VL: DTQMTQSPSTLSASVGDRVTITCRASQIISSWLAWYQQKPGKAPKLLIYKASSLASGVPSRFSGSGSGTEFTLTISSLQPDDFATYYCQQYKSYSYTFGQGTNLEIK")
"4 fold"
